These entries and their values trace back to patent US20230235012A1.

# measurement-target: T1, human CD28, full-length, expressed on transfected Expi293 cells (human, UniProt P10747 19-220)
# T1 construct: whole, on cells
# protocol: flow cytometry, 100 nM, Expi293 cells with human CD28
Reported log10 MFI values for the following binders.
Friendly reminder: values = log10 of MFI, unit MFI.

Sample records with log10 MFI:
variant ICOSL IgV-Fc fusion N52R/N57Y/Q100P (Fc fusion) DTQEKEVRAMVGSDVELSCACPEGSRFDLNDVYVYWQTSESKTVVTYHIPQRSSLEYVDSRYRNRALMSPAGMLRGDFSLRLFNVTPQDEQKFHCLVLSPSLGFQEVLSVEVTLHVAANFSVGSGGGGSEPKSSDKTHTCPPCPAPEAEGAPSVFLFPPKPKDTLMISRTPEVTCVVVDVSHEDPEVKFNWYVDGVEVHNAKTKPREEQYNSTYRVVSVLTVLHQDWLNGKEYKCKVSNKALPAPIEKTISKAKGQPREPQVYTLPPSREEMTKNQVSLTCLVKGFYPSDIAVEWESNGQPENNYKTTPPVLDSDGSFFLYSKLTVDKSRWQQGNVFSCSVMHEALHNHYTQKSLSLSPG: 5.12
variant ICOSL IgV-Fc fusion N52M/N57W/Q100P (Fc fusion) DTQEKEVRAMVGSDVELSCACPEGSRFDLNDVYVYWQTSESKTVVTYHIPQMSSLEWVDSRYRNRALMSPAGMLRGDFSLRLFNVTPQDEQKFHCLVLSPSLGFQEVLSVEVTLHVAANFSVGSGGGGSEPKSSDKTHTCPPCPAPEAEGAPSVFLFPPKPKDTLMISRTPEVTCVVVDVSHEDPEVKFNWYVDGVEVHNAKTKPREEQYNSTYRVVSVLTVLHQDWLNGKEYKCKVSNKALPAPIEKTISKAKGQPREPQVYTLPPSREEMTKNQVSLTCLVKGFYPSDIAVEWESNGQPENNYKTTPPVLDSDGSFFLYSKLTVDKSRWQQGNVFSCSVMHEALHNHYTQKSLSLSPG: 5.23
variant ICOSL IgV-Fc fusion N52S/N57Y/Q100S (Fc fusion) DTQEKEVRAMVGSDVELSCACPEGSRFDLNDVYVYWQTSESKTVVTYHIPQSSSLEYVDSRYRNRALMSPAGMLRGDFSLRLFNVTPQDEQKFHCLVLSSSLGFQEVLSVEVTLHVAANFSVGSGGGGSEPKSSDKTHTCPPCPAPEAEGAPSVFLFPPKPKDTLMISRTPEVTCVVVDVSHEDPEVKFNWYVDGVEVHNAKTKPREEQYNSTYRVVSVLTVLHQDWLNGKEYKCKVSNKALPAPIEKTISKAKGQPREPQVYTLPPSREEMTKNQVSLTCLVKGFYPSDIAVEWESNGQPENNYKTTPPVLDSDGSFFLYSKLTVDKSRWQQGNVFSCSVMHEALHNHYTQKSLSLSPG: 5.21
variant ICOSL IgV-Fc fusion N57Q/Q100P (Fc fusion) DTQEKEVRAMVGSDVELSCACPEGSRFDLNDVYVYWQTSESKTVVTYHIPQNSSLEQVDSRYRNRALMSPAGMLRGDFSLRLFNVTPQDEQKFHCLVLSPSLGFQEVLSVEVTLHVAANFSVGSGGGGSEPKSSDKTHTCPPCPAPEAEGAPSVFLFPPKPKDTLMISRTPEVTCVVVDVSHEDPEVKFNWYVDGVEVHNAKTKPREEQYNSTYRVVSVLTVLHQDWLNGKEYKCKVSNKALPAPIEKTISKAKGQPREPQVYTLPPSREEMTKNQVSLTCLVKGFYPSDIAVEWESNGQPENNYKTTPPVLDSDGSFFLYSKLTVDKSRWQQGNVFSCSVMHEALHNHYTQKSLSLSPG: 4.18

**Q:** Please give measured log10 MFI of the following entry: variant ICOSL IgV-Fc fusion N52R/N57W (Fc fusion) DTQEKEVRAMVGSDVELSCACPEGSRFDLNDVYVYWQTSESKTVVTYHIPQRSSLEWVDSRYRNRALMSPAGMLRGDFSLRLFNVTPQDEQKFHCLVLSQSLGFQEVLSVEVTLHVAANFSVGSGGGGSEPKSSDKTHTCPPCPAPEAEGAPSVFLFPPKPKDTLMISRTPEVTCVVVDVSHEDPEVKFNWYVDGVEVHNAKTKPREEQYNSTYRVVSVLTVLHQDWLNGKEYKCKVSNKALPAPIEKTISKAKGQPREPQVYTLPPSREEMTKNQVSLTCLVKGFYPSDIAVEWESNGQPENNYKTTPPVLDSDGSFFLYSKLTVDKSRWQQGNVFSCSVMHEALHNHYTQKSLSLSPG
**A:** 5.14

**Q:** Please give measured log10 MFI of the following entry: variant ICOSL IgV-Fc fusion N52S/N57Y/Q100V (Fc fusion) DTQEKEVRAMVGSDVELSCACPEGSRFDLNDVYVYWQTSESKTVVTYHIPQSSSLEYVDSRYRNRALMSPAGMLRGDFSLRLFNVTPQDEQKFHCLVLSVSLGFQEVLSVEVTLHVAANFSVGSGGGGSEPKSSDKTHTCPPCPAPEAEGAPSVFLFPPKPKDTLMISRTPEVTCVVVDVSHEDPEVKFNWYVDGVEVHNAKTKPREEQYNSTYRVVSVLTVLHQDWLNGKEYKCKVSNKALPAPIEKTISKAKGQPREPQVYTLPPSREEMTKNQVSLTCLVKGFYPSDIAVEWESNGQPENNYKTTPPVLDSDGSFFLYSKLTVDKSRWQQGNVFSCSVMHEALHNHYTQKSLSLSPG
**A:** 5.10

**Q:** Please give measured log10 MFI of the following entry: variant ICOSL IgV-Fc fusion N52T/N57Y/Q100A (Fc fusion) DTQEKEVRAMVGSDVELSCACPEGSRFDLNDVYVYWQTSESKTVVTYHIPQTSSLEYVDSRYRNRALMSPAGMLRGDFSLRLFNVTPQDEQKFHCLVLSASLGFQEVLSVEVTLHVAANFSVGSGGGGSEPKSSDKTHTCPPCPAPEAEGAPSVFLFPPKPKDTLMISRTPEVTCVVVDVSHEDPEVKFNWYVDGVEVHNAKTKPREEQYNSTYRVVSVLTVLHQDWLNGKEYKCKVSNKALPAPIEKTISKAKGQPREPQVYTLPPSREEMTKNQVSLTCLVKGFYPSDIAVEWESNGQPENNYKTTPPVLDSDGSFFLYSKLTVDKSRWQQGNVFSCSVMHEALHNHYTQKSLSLSPG
**A:** 5.21
